Values were extracted from patent US20140057950A1.

# System: human kidney carcinoma cell line A498
# ASSAY_INFO: Cell proliferation assay (WST-1), A498
# Format: cell-based
# ASSAY_SETUP: A498 cells, 48 hours treatment
VALUE_TYPE: IC50

{"COMPOUND": "CC(C)C12C[C@@H](OC(=O)CO)[C@@](C)(O1)[C@@H]1CC[C@@H](C)[C@H]1[C@@H]2OC(=O)/C=C/C1CCCCC1 [Compound 15]", "VAL": "< 30 nM"}
{"COMPOUND": "C/C(=C\\c1ccccc1)C(=O)O[C@H]1[C@@H]2[C@H](C)CC[C@H]2[C@]2(C)OC1(C(C)C)C[C@H]2OC(=O)CO [Compound 26]", "VAL": "500 to 5000 nM"}

Attention now turns to another entry.
INPUT: What value of IC50 has been reported for the following compound? C[C@@H]1CC[C@@H]2[C@@H]1[C@H](OC(=O)/C=C/c1ccccc1)[C@]1(C)C[C@@H](OC(=O)CO)[C@@]2(C)O1 [Compound 14]
OUTPUT: 500 to 5000 nM

###

# Tested on: human kidney carcinoma cell line A498
# ASSAY_INFO: Cell proliferation assay (WST-1), A498
# Type: cell-based
# ASSAY_SETUP: A498 cells, 48 hours treatment
# Protocol: A498 cells were purchased from German Collection of Microorganisms and Cell Cultures, Germany. RC-124 cell line was purchased from CLS, Germany. […] Cell proliferation was determined as a function of the metabolic activity by means of the cell proliferation reagent WST-1 (Roche, Mannheim Germany). […] The absorbance was measured with the Inifinite® M200 plate reader (Tecan, Austria) at 450/690 nm. […] The IC50 values for each compound were calculated with the software GraFit 5.0. […]
VALUE_TYPE: IC50

Items follow; give IC50 for each.
1. CC(C)C12C[C@@H](OC(=O)[C@@H](C)O)[C@@](C)(O1)[C@@H]1CC[C@@H](C)[C@H]1C2OC(=O)/C=C/c1ccccc1 (stereo partly shown) [Compound 53]
2. CC(C)C12C[C@@H](OC(=O)CO)[C@@](C)(O1)[C@@H]1CC[C@@H](C)[C@H]1[C@@H]2OC(=O)/C=C/c1ccc2c(c1)OCO2 [Compound 23]
3. CCC12C[C@@H](OC(=O)CO)[C@@](C)(O1)[C@@H]1CC[C@@H](C)[C@H]1[C@@H]2OC(=O)/C=C/c1ccccc1 [Compound 13]
4. CC(C)C12C[C@@H](OC(=O)CO)[C@@](C)(O1)[C@@H]1CC[C@@H](C)[C@H]1[C@@H]2OC(=O)c1ccc2ccccc2c1 [Compound 16]

OUTPUT:
100 to 500 nM
500 to 5000 nM
500 to 5000 nM
< 30 nM

###

Please respond with reported IC50 for every item in the list.
# System: human kidney carcinoma cell line A498
# ASSAY_INFO: Cell proliferation assay (WST-1), A498
# Format: cell-based
# ASSAY_SETUP: A498 cells, 48 hours treatment

{"COMPOUND": "CC(C)C12C[C@@H](OC(=O)CO)[C@@](C)(O1)[C@@H]1CC[C@@H](C)[C@H]1[C@@H]2OC(=O)/C=C/c1ccc(F)cc1 [Compound 18]", "IC50": "500 to 5000 nM"}
{"COMPOUND": "Cc1c(C(=O)O[C@H]2[C@@H]3[C@H](C)CC[C@H]3C3(C)O[C@@]2(C(C)C)C[C@H]3OC(=O)CO)ccc2ccccc12 [Compound 39]", "IC50": "< 30 nM"}
{"COMPOUND": "CC(C)[C@@]12C[C@@H](OC(=O)CO)C(C)(O1)[C@@H]1CC[C@@H](C)[C@H]1[C@@H]2OC(=O)C1CCC2CCCCC2C1 (stereo partly shown) [Compound 38]", "IC50": "30 to 100 nM"}
{"COMPOUND": "CC(C)[C@@]12C[C@@H](OC(=O)CO)C(C)(O1)[C@@H]1CC[C@@H](C)[C@H]1[C@@H]2OC(=O)c1ccc2c(c1)CCCC2 [Compound 36]", "IC50": "< 30 nM"}
{"COMPOUND": "C#CC[C@@H](O)C(=O)O[C@@H]1CC2(C(C)C)O[C@@]1(C)[C@@H]1CC[C@@H](C)[C@H]1C2OC(=O)c1ccc2ccccc2c1 (stereo partly shown) [Compound 57]", "IC50": "500 to 5000 nM"}

Items follow; give IC50 for each.
1. CC(C)C12C[C@@H](OC(=O)[C@H](C)O)[C@@](C)(O1)[C@@H]1CC[C@@H](C)[C@H]1C2OC(=O)c1ccc2ccccc2c1 (stereo partly shown) [Compound 54]
2. CC(C)C12C[C@@H](OC(=O)[C@@H](C)O)[C@@](C)(O1)[C@@H]1CC[C@@H](C)[C@H]1C2OC(=O)c1ccc2ccccc2c1 (stereo partly shown) [Compound 55]
3. CC(C)C12C[C@@H](OC(=O)CO)[C@@](C)(O1)[C@@H]1CC[C@@H](C)[C@H]1[C@@H]2OC(=O)c1ccc([N+](=O)[O-])cc1 [Compound 30]
4. CC(C)C12C[C@@H](OC(=O)CO)[C@@](C)(O1)[C@@H]1CC[C@@H](C)[C@H]1[C@@H]2OC(=O)c1ccc(Cl)c(Cl)c1 [Compound 31]
5. CC(C)C12C[C@@H](OC(=O)CO)[C@@](C)(O1)[C@@H]1CC[C@@H](C)[C@H]1[C@@H]2OC(=O)/C=C/c1ccc(Cl)cc1 [Compound 19]

OUTPUT:
1: 100 to 500 nM; 2: 30 to 100 nM; 3: 500 to 5000 nM; 4: 100 to 500 nM; 5: 500 to 5000 nM
